These data points were gathered from the supplement of paper PMC12855868.

B1: library; numbered along this chain (parent)
chain: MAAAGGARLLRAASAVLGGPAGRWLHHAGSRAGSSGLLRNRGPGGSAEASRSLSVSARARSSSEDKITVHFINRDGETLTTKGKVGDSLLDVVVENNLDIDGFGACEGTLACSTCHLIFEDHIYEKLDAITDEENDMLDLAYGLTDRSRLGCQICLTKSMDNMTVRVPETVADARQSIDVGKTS

- Variants of: B1
- protocol_text: scaled log2 fold change in cell abundance, elesclomol vs control (0 = silent mean, 1 = nonsense mean) (scaled log2 ratio); higher = higher viability under elesclomol (loss of FDX1 cuproptosis function);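 also: variant abundance is its share of total variant reads in each endpoint sample, from next-generation sequencing of the integrated ORF PCR-amplified out of genomic DNA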
- condition_description: with HEK293T FDX1 KO; elesclomol 40 nM; glucose 10 mM; 11 days
Range-based classes on measured scaled log2 fold change: I (below -0.2), II (-0.2 to below 0.2), III (0.2 or more)

## Task Could you place L117H in its proper category? Many thanks.
## Result III

## Task In plain terms, what class is A28H ?
## Result II

## Task In plain terms, what class is C106V ?
## Result III

## Task State the class of the variant shown: G76D
## Result III

## Task Textbook exercise: identify the category of the variant given here, T109K , according to its measured value.
## Result I

## Task Could you tell me which band A105W belongs to?
## Result II

## Task Lab note: sort G42F into the matching scaled log2 fold change band.
## Result I

## Task In plain terms, what class is E64P ?
## Result II

## Task Consider I130V . To which scaled log2 fold change class does it belong?
## Result I

## Task Which class does T68K fall in?
## Result I

## Task Exam item: assign A13W to the correct category.
## Result I

## Task Please classify: L138V
## Result I

## Task Which of the defined bands does the recorded scaled log2 fold change of N96P sit within?
## Result II

## Task Could you tell me which band L89Q belongs to?
## Result III
